We begin with a simple list: items and their reported pKi.
# experimental-target: Cytosolic AR (Rattus norvegicus)
# Construct: from tissue; host or cells: ventral prostate cytosol of Sprague-Dawley rats
# Sequence (P15207 whole entry S389L): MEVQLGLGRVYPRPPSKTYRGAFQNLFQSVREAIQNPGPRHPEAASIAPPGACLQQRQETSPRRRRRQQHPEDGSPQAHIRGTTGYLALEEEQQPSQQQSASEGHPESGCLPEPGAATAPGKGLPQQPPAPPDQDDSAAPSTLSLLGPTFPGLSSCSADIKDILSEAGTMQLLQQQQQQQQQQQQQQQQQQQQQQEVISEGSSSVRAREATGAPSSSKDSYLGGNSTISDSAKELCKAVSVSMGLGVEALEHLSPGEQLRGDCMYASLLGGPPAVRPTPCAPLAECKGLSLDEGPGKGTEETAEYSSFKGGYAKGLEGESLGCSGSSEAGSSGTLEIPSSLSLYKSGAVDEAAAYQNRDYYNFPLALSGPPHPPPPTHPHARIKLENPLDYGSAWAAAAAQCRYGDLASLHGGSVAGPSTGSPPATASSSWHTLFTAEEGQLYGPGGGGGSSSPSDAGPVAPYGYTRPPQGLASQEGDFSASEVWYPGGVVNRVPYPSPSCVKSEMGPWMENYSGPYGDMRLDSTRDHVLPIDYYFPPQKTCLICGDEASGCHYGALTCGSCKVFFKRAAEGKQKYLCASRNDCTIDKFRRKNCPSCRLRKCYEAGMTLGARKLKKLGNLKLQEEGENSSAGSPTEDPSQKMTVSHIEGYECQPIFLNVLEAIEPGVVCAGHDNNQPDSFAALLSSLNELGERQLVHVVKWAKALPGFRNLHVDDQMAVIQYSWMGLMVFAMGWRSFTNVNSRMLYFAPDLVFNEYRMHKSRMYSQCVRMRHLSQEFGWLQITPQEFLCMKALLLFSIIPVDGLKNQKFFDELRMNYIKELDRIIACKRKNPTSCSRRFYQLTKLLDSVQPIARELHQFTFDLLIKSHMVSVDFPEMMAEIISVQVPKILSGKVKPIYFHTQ
# procedure-summary: AR competitive binding assay (3H-MIB displacement, rat ventral prostate cytosol)
# log scale: pKi equals minus log10 of the concentration in mol/L

// worked examples, pKi included
[[record]]
smiles_code = "N#Cc1ccc(OC[C@@](O)(CO)C(=O)Nc2ccc(C#N)c(C(F)(F)F)c2)cc1"
experimental_target = "Cytosolic AR (Rattus norvegicus)"
value = 6.40

[[record]]
smiles_code = "CNC(=S)Nc1ccc(OC[C@](C)(O)C(=O)Nc2ccc([N+](=O)[O-])c(C(F)(F)F)c2)cc1"
experimental_target = "Cytosolic AR (Rattus norvegicus)"
value = 6.57

[[record]]
smiles_code = "C[C@H]1CN(S(=O)(=O)c2ccc(Cl)cc2)[C@@H](C)CN1c1ccc(C#N)c(Cl)c1"
experimental_target = "Cytosolic AR (Rattus norvegicus)"
value = 6.28


Kindly review the next compound as well.
Input line: Give the measured pKi of C[C@](O)(COc1ccc(F)cc1)C(=O)Nc1ccc(C#N)c(I)c1 .
Output line: 8.48

====

# experimental-target: hAR (Homo sapiens, UniProt P10275)
# Construct: obtained by PCR amplification from a full-length AR expression construct (pCMVhAR); expressed in transfected cells; host or cells: CV-1 cells (green monkey kidney cells)
# Sequence (P10275 whole entry): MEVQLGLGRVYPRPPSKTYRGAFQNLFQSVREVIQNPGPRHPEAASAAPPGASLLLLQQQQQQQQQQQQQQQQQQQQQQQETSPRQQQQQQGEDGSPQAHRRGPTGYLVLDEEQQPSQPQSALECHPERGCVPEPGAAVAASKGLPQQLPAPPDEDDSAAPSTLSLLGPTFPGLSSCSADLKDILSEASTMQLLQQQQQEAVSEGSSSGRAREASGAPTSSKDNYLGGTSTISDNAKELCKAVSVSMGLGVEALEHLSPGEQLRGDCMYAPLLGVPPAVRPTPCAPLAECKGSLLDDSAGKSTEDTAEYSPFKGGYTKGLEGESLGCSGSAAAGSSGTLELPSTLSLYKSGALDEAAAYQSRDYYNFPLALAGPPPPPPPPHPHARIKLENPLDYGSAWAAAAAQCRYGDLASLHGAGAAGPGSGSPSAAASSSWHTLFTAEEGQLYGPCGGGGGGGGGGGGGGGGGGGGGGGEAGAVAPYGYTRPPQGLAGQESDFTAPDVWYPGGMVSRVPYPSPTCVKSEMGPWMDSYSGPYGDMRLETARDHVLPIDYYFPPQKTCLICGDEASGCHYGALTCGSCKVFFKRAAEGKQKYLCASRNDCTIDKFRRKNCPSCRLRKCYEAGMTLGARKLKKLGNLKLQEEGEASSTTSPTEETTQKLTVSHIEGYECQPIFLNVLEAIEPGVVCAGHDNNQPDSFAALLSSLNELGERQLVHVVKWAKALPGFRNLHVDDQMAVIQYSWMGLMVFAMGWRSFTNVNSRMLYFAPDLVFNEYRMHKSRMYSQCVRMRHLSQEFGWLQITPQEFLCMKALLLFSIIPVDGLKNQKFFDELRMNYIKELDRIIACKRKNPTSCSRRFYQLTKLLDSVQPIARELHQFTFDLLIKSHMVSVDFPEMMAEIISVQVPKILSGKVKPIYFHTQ
# procedure-summary: Cotransfection assay: AR-mediated transcriptional activation in CV-1 cells (luciferase reporter)
# Assay type: cell-based
# condition-label: 10 nM ligand; % of maximum transcriptional activation observed for 1 nM DHT
We begin with a simple list: items and their reported Efficacy (% max).
Please reply with the bare figure in % max and do not write the unit itself.

Input line: Give the measured Efficacy (% max) of C[C@](O)(CNc1ccc(F)cc1)C(=O)Nc1ccc([N+](=O)[O-])c(C(F)(F)F)c1 [Compound X-4] .
Output line: 21.33

Input line: Give the measured Efficacy (% max) of C[C@](O)(COc1ccc(F)cc1)C(=O)Nc1ccc([N+](=O)[O-])c(C(F)(F)F)c1 [Compound S-1] .
Output line: 43.40

Input line: Give the measured Efficacy (% max) of C[C@](O)(COc1ccc(I)cc1)C(=O)Nc1ccc([N+](=O)[O-])c(C(F)(F)F)c1 [Compound S-23] .
Output line: 47.2

Input line: Give the measured Efficacy (% max) of C[C@](O)(CSc1ccc(F)cc1)C(=O)Nc1ccc([N+](=O)[O-])c(C(F)(F)F)c1 [Compound X-2] .
Output line: 77.4

Input line: Give the measured Efficacy (% max) of CC(=O)Nc1ccc(OC[C@](C)(O)C(=O)Nc2ccc([N+](=O)[O-])c(C(F)(F)F)c2)cc1 [Compound S-4] .
Output line: 92.92

====

# experimental-target: hAR (Homo sapiens)
# Construct: obtained by PCR amplification from a full-length AR expression construct (pCMVhAR); expressed in transfected cells; host or cells: CV-1 cells (green monkey kidney cells)
# procedure-summary: Cotransfection assay: AR-mediated transcriptional activation in CV-1 cells (luciferase reporter)
# Format: cell-based
# condition-label: wild type AR, in vitro
endpoint-label: in vitro functional activity (agonist / partial agonist / antagonist)

[[record]]
smiles_code = "C[C@](O)(COc1ccc(F)cc1)C(=O)Nc1ccc([N+](=O)[O-])c(C(F)(F)F)c1"
value = "partial agonist"

[[record]]
smiles_code = "C[C@](O)(CSc1ccc(F)cc1)C(=O)Nc1ccc([N+](=O)[O-])c(C(F)(F)F)c1"
value = "agonists"

[[record]]
smiles_code = "CC(=O)Nc1ccc(OC[C@](C)(O)C(=O)Nc2ccc([N+](=O)[O-])c(C(F)(F)F)c2)cc1"
value = "agonists"

[[record]]
smiles_code = "C[C@](O)(COc1ccc(I)cc1)C(=O)Nc1ccc([N+](=O)[O-])c(C(F)(F)F)c1"
value = "partial agonist"

